System: Hs-578T
Experiment: NCI tumour cell line growth inhibition, 48 h
The source made the active and inactive calls. No stated cut-off is given here; in the data, active = GI50 up to about 1.1 µM and inactive = higher.
# Lookup of reported GI50 keyed by entry

c1ccc(-c2cc(-c3cc(-c4ccccc4)n(-c4ccccc4)n3)nn2-c2ccccc2)cc1 | 52 µM (inactive)
NC(=O)NNCc1c(-c2ccccc2)no[n+]1[O-] | > 100 µM (inactive)
COC(=O)C(Cc1ccccc1)NC(=O)CCCNC(=O)OCc1ccccc1 (centres undefined) | > 100 µM (inactive)
CC1=NC(=Cc2ccc(Cl)cc2)C(=O)N1n1c(-c2ccccc2)nc2ccccc2c1=O | 18.1 µM (inactive)
C=CCNC1=C2C[C@@H](C)C[C@@H](OC)[C@H](OC(=O)CCN)[C@H](C)/C=C(\C)[C@@H](OC(N)=O)[C@H](OC)/C=C\C=C(/C)C(=O)NC(=CC1=O)C2=O | 14.5 µM (inactive)

Okay, now this molecule:
Data point: O=C(O)C1C2CCC(O2)C1C(=O)Nc1cccc2cccnc12 (centres undefined) ; GI50 = 93.5 µM (inactive)

###

Tested on: SF-268
Assay: NCI tumour cell line growth inhibition, 48 h
The source made the active and inactive calls. No stated cut-off is given here; in the data, active = GI50 up to about 1.1 µM and inactive = higher.
# Lookup of reported GI50 keyed by entry

Worked examples, 3 compounds total:
c1c[nH]c(CN2CCN(Cc3ncc[nH]3)CC2)n1 | > 100 µM (inactive)
O=C(OCCN=c1c2ccccc2ccc2ccccc12)c1ccc([N+](=O)[O-])cc1 | > 100 µM (inactive)
O=C(O)C1(c2ccccc2)CCCNCC1 (stereo not drawn) | > 100 µM (inactive)

Data point: COc1cc(C2SC(=N)Nc3c2c(C)nn3C(=O)Cc2ccccc2)cc(OC)c1OC (stereo not drawn) ; GI50 = > 100 µM (inactive)

Data point: "O=C1CCC(=O)N1CNc1ccc2c(c1)S(=O)(=O)c1ccccc1O2" ; GI50 = > 100 µM (inactive)

Data point: CCOC(=O)C1OC(=O)CC1C1(C(=O)OCC)C=CC(=O)O1 (stereo not drawn) ; GI50 = > 100 µM (inactive)

###

Test system: HL-60
Test: NCI tumour cell line growth inhibition, 48 h
Activity calls are given as the source filed them. No stated cut-off is given here; in the data, active = GI50 up to about 1.1 µM and inactive = higher. Residues, ends and D or L forms follow the SMILES beside them. *: point of attachment. Boc = CC(C)(C)OC(=O)*; OBn = c1ccc(CO*)cc1
Permitted responses: T for active, F for inactive

Prompt: # lookup: test call for "O=c1c(C(c2ccc(/C=C/c3ccccc3)cc2)c2c(O)oc3ccccc3c2=O)c(O)oc2ccccc12"
Completion: F

Prompt: # lookup: test call for "O=C(/C=C/c1ccccc1)CCN1CCCCC1"
Completion: F

Prompt: # lookup: test call for "C=CCNC1=C2C[C@@H](C)C[C@@H](OC)[C@H](OC(=O)CCN)[C@H](C)/C=C(\C)[C@@H](OC(N)=O)[C@H](OC)/C=C\C=C(/C)C(=O)NC(=CC1=O)C2=O"
Completion: F

Prompt: # lookup: test call for COc1cc2c(cc1OC)C(=O)C1(C2)[C@H](c2ccccc2)C2C(=O)c3cc(OC)c(OC)cc3C2[C@H]1c1ccccc1 (stereo partly specified)
Completion: F

Prompt: # lookup: test call for CC(=O)OC1C(=O)C(O)C(C)OC1O[C@@H]1C[C@@]2(C)[C@@H]3CC=C4[C@@H](C[C@H](O)C(=O)C4(C)C)[C@]3(C)C(=O)C[C@]2(C)[C@H]1[C@@](C)(O)C(=O)/C=C/C(C)(C)O (stereo partly specified)
Completion: F

Prompt: # lookup: test call for COc1ccccc1N1C(=O)/C(=C\c2cccc(Oc3ccccc3)c2)SC1c1ccccc1 (stereo unspecified)
Completion: T

Prompt: # lookup: test call for CC(NC(=O)CNC(=O)OC(C)(C)C)C(=O)NC(Cc1ccccc1)C(=O)OCc1ccccc1 (stereo not drawn) (Boc-Gly-Ala-Phe-OBn; configuration not given here)
Completion: F

Prompt: # lookup: test call for "N=c1oc2ccccc2cc1C(=O)Nc1ccccn1"
Completion: F

###

# Lookup of reported GI50 keyed by entry
Tested on: PC-3
Test: NCI tumour cell line growth inhibition, 48 h
The source made the active and inactive calls. Cut-off read from the data, not from the text of the source: active = GI50 up to about 1.1 µM and inactive = higher.

CN(C)c1cccc2c1C(=O)C=CC21CCc2ccc(N(C)C)c3c(N(C)C)ccc1c23 (stereo unspecified) | 11.6 µM (inactive)

Known value: PC-3 GI50 of the compound "COc1ccccc1OC(=O)/C=C/c1ccccc1" equals > 100 µM (inactive)

Known value: PC-3 GI50 of the compound CC1(C)OC2[C@@H](CO[C@@]3([C@@H](O)CCO)OC(C)(C)O[C@@H]23)O1 (stereo partly specified) equals > 100 µM (inactive)

Known value: PC-3 GI50 of the compound O=C1OCC=C1COC1OC(CO)C(O)C(O)C1O (stereo unspecified) equals > 100 µM (inactive)

Known value: PC-3 GI50 of the compound "O=C(NCCCCCCCN1CCCCCCC1)C(C1CCCCC1)C1CCCCC1" equals 8.57 µM (inactive)

Known value: PC-3 GI50 of the compound CC1(C)CNC(=O)C2(CCCO2)CNC(C)(C)CNC(=O)C2(CCCO2)CN1 (stereo unspecified) equals > 10 µM (inactive)

Known value: PC-3 GI50 of the compound "Cc1c(Cc2ccccc2)n(COCCCO)c(=O)[nH]c1=O" equals > 100 µM (inactive)

###

Test system: PC-3
Assay: NCI tumour cell line growth inhibition, 48 h
Active and inactive are the calls of the source. No stated cut-off is given here; in the data, active = GI50 up to about 1.1 µM and inactive = higher.
result.type: GI50

Worked examples, 4 molecules total:
Cc1cn(C2C=CC(COP(=O)(OCC3=CC(=O)c4ccccc4C3=O)N(C)CCCCCl)O2)c(=O)[nH]c1=O (configuration not stated) | 12.1 µM (inactive)
COC(=O)c1ccc(/C=C2\Oc3cc(O)ccc3C2=O)cc1 | 91.4 µM (inactive)
COc1cccc(/C=C/c2ccc(S(N)(=O)=O)cc2)c1 | 22.7 µM (inactive)
c1ncc(C23C4C5C6C4C2C6C53)[nH]1 (configuration not stated) | > 100 µM (inactive)

Data point: "N/C(=N\c1ccc(Cl)cc1)NS(=O)(=O)c1ccc(S(=O)(=O)c2ccccc2)s1" ; GI50 = 14.2 µM (inactive)

Data point: O=C(Nc1ccc2[nH]c(C(=O)N3CC(CCl)c4c3cc([N+](=O)[O-])c3ccccc43)cc2c1)Nc1ccc2[nH]c(C(=O)N3CC(CCl)c4c3cc([N+](=O)[O-])c3ccccc43)cc2c1 (configuration not stated) ; GI50 = > 100 µM (inactive)

Data point: CC(NNC(=O)c1cc[n+]([BH2-]C#N)cc1)c1ccc(Cl)c(Cl)c1 (configuration not stated) ; GI50 = 22.9 µM (inactive)

Data point: COC(=O)/C=C(/C=C1/C(C#N)=C(N)N(c2ccc(Cl)cc2)C1(C)/C(=C\C(=O)OC)C(=O)OC)C(=O)OC (configuration not stated) ; GI50 = 12.9 µM (inactive)

###

Tested on: NCI-H522
Test: NCI tumour cell line growth inhibition, 48 h
Activity calls are given as the source filed them. Cut-off read from the data, not from the text of the source: active = GI50 up to about 1.1 µM and inactive = higher.
# Lookup of reported GI50 keyed by entry

Worked examples, 5 compounds total:
CCOC(=O)C1(C(=O)OCC)CC(=O)[C@@]2(C1)OCC[C@H]1OC(=O)C[C@H]12 | > 100 µM (inactive)
O=C(Nc1ccc2[nH]c(C(=O)N3CC(CCl)c4c3cc([N+](=O)[O-])c3ccccc43)cc2c1)Nc1ccc2[nH]c(C(=O)N3CC(CCl)c4c3cc([N+](=O)[O-])c3ccccc43)cc2c1 (stereo not given) | > 100 µM (inactive)
N#C/C(C(=S)NCc1ccccc1)=C(/N)N1CCCC1 | > 100 µM (inactive)
CCOC(=O)C1C(c2ccco2)C2(C#N)C(=N)OC1(C)C2(C#N)C#N (stereo not given) | > 100 µM (inactive)
O=C(O)c1c[nH]c2c(ccc3ncccc32)c1=O | > 100 µM (inactive)

Data point: "COc1ccc2oc(=O)cc(C)c2c1" ; GI50 = > 100 µM (inactive)

Data point: CC(C)CC1c2[nH]c3ccccc3c2C[C@H]2C(=O)NC(COC(C)(C)C)C(=O)N12 (stereo not given in full) ; GI50 = 16.4 µM (inactive)

Data point: CC(C)(C)CC(C)(C)c1ccc(OCCOCC[N+](C)(C)Cc2ccccc2)cc1 [BENZETHONIUM CHLORIDE] ; GI50 = 1.66 µM (inactive)

Data point: "COc1nc2ncc([C@@H](O)[C@H](O)CO)nc2c(=O)n1C" ; GI50 = > 100 µM (inactive)

Data point: COc1cccc2c1OC1c3ccccc3OCC1C2 (stereo not given) ; GI50 = > 10 µM (inactive)

###

# Lookup of reported GI50 keyed by entry
System: PC-3
Experiment: NCI tumour cell line growth inhibition, 48 h
The source made the active and inactive calls. No stated cut-off is given here; in the data, active = GI50 up to about 1.1 µM and inactive = higher.

O=C1c2ccccc2C(=O)C2NC(CCCCCSSCCCCCC3=NC4C(=O)c5ccccc5C(=O)C4N3)=NC12 (stereo not given) | > 100 µM (inactive)

Data point: CC12CCC3[C@@H](CC3(C)C)C(O)(CCC1=O)C2 (stereo not given in full) ; GI50 = > 100 µM (inactive)

Data point: "Clc1sc(Cl)c2c1[C@H](Br)C[C@@H]2Cl" ; GI50 = 40.3 µM (inactive)

Data point: CC(=O)OCC1OC(n2c(C)c(/N=N/c3ccc(C)cc3)c(C)c(C#N)c2=S)C(OC(C)=O)C(OC(C)=O)C1OC(C)=O (stereo not given) ; GI50 = > 100 µM (inactive)

Data point: "NN/C(=N\c1ccc(Cl)cc1)NS(=O)(=O)c1ccc(S(=O)(=O)c2ccccc2)s1" ; GI50 = 25.5 µM (inactive)
